Overview of recorded IC50 for various molecules
- target system: PI3-kinase subunit gamma/Phosphoinositide 3-kinase regulatory subunit 5 (Homo sapiens)
- Sequence (P48736 whole entry): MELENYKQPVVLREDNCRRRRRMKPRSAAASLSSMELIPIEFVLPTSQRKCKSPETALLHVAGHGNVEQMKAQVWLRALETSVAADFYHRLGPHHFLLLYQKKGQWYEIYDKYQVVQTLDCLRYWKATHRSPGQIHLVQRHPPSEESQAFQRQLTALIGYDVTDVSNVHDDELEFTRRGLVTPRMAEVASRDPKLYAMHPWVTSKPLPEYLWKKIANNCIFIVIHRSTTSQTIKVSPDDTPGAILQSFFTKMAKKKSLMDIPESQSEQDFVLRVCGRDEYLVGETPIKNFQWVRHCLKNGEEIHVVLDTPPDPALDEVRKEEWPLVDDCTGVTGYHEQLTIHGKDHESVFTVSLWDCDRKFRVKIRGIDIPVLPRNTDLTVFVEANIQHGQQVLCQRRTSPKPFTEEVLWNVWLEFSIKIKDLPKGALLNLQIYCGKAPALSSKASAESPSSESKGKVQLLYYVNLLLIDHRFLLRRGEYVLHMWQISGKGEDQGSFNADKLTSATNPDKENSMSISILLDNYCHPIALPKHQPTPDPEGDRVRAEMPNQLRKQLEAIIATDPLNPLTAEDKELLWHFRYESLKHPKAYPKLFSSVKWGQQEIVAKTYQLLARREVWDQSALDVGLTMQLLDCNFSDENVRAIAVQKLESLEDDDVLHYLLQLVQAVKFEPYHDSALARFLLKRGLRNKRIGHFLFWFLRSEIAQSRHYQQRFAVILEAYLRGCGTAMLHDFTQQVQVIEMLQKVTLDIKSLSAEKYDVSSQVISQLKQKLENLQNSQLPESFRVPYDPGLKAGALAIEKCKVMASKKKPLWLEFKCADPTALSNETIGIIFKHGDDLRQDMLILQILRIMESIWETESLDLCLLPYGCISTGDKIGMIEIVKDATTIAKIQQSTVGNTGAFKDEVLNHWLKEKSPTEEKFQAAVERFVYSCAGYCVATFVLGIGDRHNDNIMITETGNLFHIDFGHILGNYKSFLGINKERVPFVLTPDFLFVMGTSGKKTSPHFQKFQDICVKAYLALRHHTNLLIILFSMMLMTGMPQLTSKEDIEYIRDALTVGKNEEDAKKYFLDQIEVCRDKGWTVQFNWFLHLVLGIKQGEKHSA
- Sequence (Q8WYR1 whole entry, further chain): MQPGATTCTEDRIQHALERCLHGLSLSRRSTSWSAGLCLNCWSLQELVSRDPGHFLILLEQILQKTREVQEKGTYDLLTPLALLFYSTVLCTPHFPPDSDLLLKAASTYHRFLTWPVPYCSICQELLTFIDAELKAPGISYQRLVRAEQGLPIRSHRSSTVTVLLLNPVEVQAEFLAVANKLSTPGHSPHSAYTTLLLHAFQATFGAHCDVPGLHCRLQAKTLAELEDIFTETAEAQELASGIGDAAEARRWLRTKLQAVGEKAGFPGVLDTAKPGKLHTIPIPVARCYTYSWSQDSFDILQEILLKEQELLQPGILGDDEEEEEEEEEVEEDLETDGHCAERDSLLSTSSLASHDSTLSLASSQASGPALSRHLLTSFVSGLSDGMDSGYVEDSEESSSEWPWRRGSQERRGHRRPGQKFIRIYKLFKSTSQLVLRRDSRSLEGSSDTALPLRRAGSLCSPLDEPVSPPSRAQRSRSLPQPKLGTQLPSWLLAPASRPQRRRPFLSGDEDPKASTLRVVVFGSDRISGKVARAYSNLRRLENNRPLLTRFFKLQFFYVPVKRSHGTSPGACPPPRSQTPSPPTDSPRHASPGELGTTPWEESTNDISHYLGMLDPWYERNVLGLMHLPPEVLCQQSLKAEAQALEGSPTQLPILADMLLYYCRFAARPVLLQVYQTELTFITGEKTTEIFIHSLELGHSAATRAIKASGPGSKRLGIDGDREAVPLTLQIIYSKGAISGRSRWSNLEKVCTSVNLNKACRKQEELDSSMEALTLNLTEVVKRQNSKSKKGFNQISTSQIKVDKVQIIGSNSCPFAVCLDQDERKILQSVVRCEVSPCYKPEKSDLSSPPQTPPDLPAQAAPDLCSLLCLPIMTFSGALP
- procedure summary: Inhibition of P110gamma/PIK3R5 (unknown origin) using L-alpha-phosphatidylinositol as substrate after 40 mins by ATP depletion assay
API: value field is a number in nM; no unit string.

COc1ncc(-c2ccc3ncn([C@H]4CCN(CC5CC5)C4)c(=O)c3c2)cc1NS(=O)(=O)c1ccc(F)cc1: 181

Now look at this one.
Summary for this molecule, `COc1ncc(-c2ccc3ncn([C@H]4CCN(C(=O)C5CC5)C4)c(=O)c3c2)cc1NS(=O)(=O)c1ccc(F)cc1` : IC50 is 116

* * *

- Test system: MCF7
- procedure summary: Antiproliferative activity against human MCF7 cells harboring PI3CA E545K mutant after 72 hrs by MTT assay
- Format: functional, cell-based
- test parameters: MCF7, 72 h
Overview of recorded pIC50 for various compounds
Scale explanation: pIC50 corresponds to minus log10 of a concentration expressed in moles per litre.

CCN(CC)CCn1cnc2ccc(-c3cnc(OC)c(NS(=O)(=O)c4ccc(F)cc4)c3)cc2c1=O: 5.63
COc1ncc(-c2ccc3ncn(CCN4CCN(C)CC4)c(=O)c3c2)cc1NS(=O)(=O)c1ccc(F)cc1: 5.52
COc1ncc(-c2ccc3ncn(CCN(C)C)c(=O)c3c2)cc1NS(=O)(=O)c1ccc(F)cc1: 5.43
COc1ncc(-c2ccc3ncn([C@H]4CCN(C(=O)OC(C)(C)C)C4)c(=O)c3c2)cc1NS(=O)(=O)c1ccc(F)cc1: 5.56
Cn1c(=O)n(-c2ccc(C(C)(C)C#N)cc2)c2c3cc(-c4cnc5ccccc5c4)ccc3ncc21: 5.96

Summary for this compound, `COc1ncc(-c2ccc3ncn([C@H]4CCN(C(=O)C5CCOCC5)C4)c(=O)c3c2)cc1NS(=O)(=O)c1ccc(F)cc1` : pIC50 is 5.79

Summary for this compound, `COc1ncc(-c2ccc3ncn(CCN4CCOCC4)c(=O)c3c2)cc1NS(=O)(=O)c1ccc(Cl)cc1` : pIC50 is 5.38

Summary for this compound, `COc1ncc(-c2ccc3ncn(C4CCN(C(=O)C5CCOCC5)CC4)c(=O)c3c2)cc1NS(=O)(=O)c1ccc(F)cc1` : pIC50 is 5.54

Summary for this compound, `COc1ncc(-c2ccc3ncn([C@H]4CCN(CC5CC5)C4)c(=O)c3c2)cc1NS(=O)(=O)c1ccc(F)cc1` : pIC50 is 5.99

Summary for this compound, `COc1ncc(-c2ccc3ncn(Cc4ccncc4)c(=O)c3c2)cc1NS(=O)(=O)c1ccc(F)cc1` : pIC50 is 5.74

Summary for this compound, `COc1ncc(-c2ccc3ncn([C@@H]4CCN(C(=O)C5CC5)C4)c(=O)c3c2)cc1NS(=O)(=O)c1ccc(F)cc1` : pIC50 is 5.65

Summary for this compound, `CCCCn1cnc2ccc(-c3cnc(OC)c(NS(=O)(=O)c4ccc(F)cc4)c3)cc2c1=O` : pIC50 is 5.41

Summary for this compound, `COc1ccc(Cn2cnc3ccc(-c4cnc(OC)c(NS(=O)(=O)c5ccc(F)cc5)c4)cc3c2=O)cc1` : pIC50 is 5.48

* * *

Overview of recorded pIC50 for various molecules
- System: HCT-116
- procedure summary: Antiproliferative activity against human HCT116 cells harboring PI3CA H1047R mutant after 72 hrs by MTT assay
- Assay type: functional, cell-based
- test parameters: HCT-116, 72 h
Scale explanation: pIC50 corresponds to minus log10 of a concentration expressed in moles per litre.

Use these answered entries as a reference point.
COc1ncc(-c2ccc3ncn(-c4ccc(CN5CCOCC5)cc4)c(=O)c3c2)cc1NS(=O)(=O)c1ccc(F)cc1: 5.85
COc1ncc(-c2ccc3ncn(C4CCNCC4)c(=O)c3c2)cc1NS(=O)(=O)c1ccc(F)cc1: 5.94
COc1ncc(-c2ccc3ncn(-c4ccc(CN5CCN(C)CC5)cc4)c(=O)c3c2)cc1NS(=O)(=O)c1ccc(F)cc1: 5.90
COc1ncc(-c2ccc3ncn(CCN4CCCCC4)c(=O)c3c2)cc1NS(=O)(=O)c1ccc(F)cc1: 5.56

Summary for this molecule, `COc1ncc(-c2ccc3ncn(C4CCN(CC5CC5)CC4)c(=O)c3c2)cc1NS(=O)(=O)c1ccc(F)cc1` : pIC50 is 5.91

Summary for this molecule, `COc1ncc(-c2ccc3ncn(C4CCN(C(=O)C5CC5)CC4)c(=O)c3c2)cc1NS(=O)(=O)c1ccc(F)cc1` : pIC50 is 5.87

Summary for this molecule, `COc1ncc(-c2ccc3ncn(C4CCN(C(C)=O)CC4)c(=O)c3c2)cc1NS(=O)(=O)c1ccc(F)cc1` : pIC50 is 5.89

Summary for this molecule, `COc1ncc(-c2ccc3ncn([C@H]4CCN(C(C)=O)C4)c(=O)c3c2)cc1NS(=O)(=O)c1ccc(F)cc1` : pIC50 is 5.90

* * *

- target system: Serine/threonine-protein kinase mTOR (Homo sapiens, UniProt P42345)
metric: pIC50
Scale explanation: pIC50 corresponds to minus log10 of a concentration expressed in moles per litre.

// returns pIC50 for `COc1ncc(-c2ccc3ncn([C@H]4CCN(C(=O)C5CC5)C4)c(=O)c3c2)cc1NS(=O)(=O)c1ccc(F)cc1` with Serine/threonine-protein kinase mTOR (Homo sapiens, UniProt P42345); value = 6.68

* * *

- target system: PI3K p110 beta/p85 alpha (Homo sapiens, UniProt P42338)
- Sequence (P27986 whole entry): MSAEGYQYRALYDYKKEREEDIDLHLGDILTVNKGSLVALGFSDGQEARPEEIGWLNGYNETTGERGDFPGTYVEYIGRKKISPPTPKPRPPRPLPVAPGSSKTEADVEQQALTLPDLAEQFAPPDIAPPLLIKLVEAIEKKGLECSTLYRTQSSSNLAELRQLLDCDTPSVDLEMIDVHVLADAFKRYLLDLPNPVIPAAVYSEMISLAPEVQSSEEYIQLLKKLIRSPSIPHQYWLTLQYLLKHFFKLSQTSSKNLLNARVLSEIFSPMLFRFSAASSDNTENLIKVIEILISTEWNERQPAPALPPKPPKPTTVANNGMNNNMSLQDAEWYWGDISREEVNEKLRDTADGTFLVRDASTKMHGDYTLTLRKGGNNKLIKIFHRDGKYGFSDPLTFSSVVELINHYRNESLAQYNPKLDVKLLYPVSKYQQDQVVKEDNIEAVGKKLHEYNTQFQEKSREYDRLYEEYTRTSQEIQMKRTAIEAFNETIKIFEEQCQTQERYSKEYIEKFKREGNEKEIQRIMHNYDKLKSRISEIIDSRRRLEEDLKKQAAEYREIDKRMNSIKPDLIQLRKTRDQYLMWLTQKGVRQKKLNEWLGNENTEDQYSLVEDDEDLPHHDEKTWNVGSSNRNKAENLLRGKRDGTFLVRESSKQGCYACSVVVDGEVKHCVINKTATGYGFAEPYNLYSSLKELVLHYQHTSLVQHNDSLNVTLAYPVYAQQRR
- Sequence (P42338 whole entry): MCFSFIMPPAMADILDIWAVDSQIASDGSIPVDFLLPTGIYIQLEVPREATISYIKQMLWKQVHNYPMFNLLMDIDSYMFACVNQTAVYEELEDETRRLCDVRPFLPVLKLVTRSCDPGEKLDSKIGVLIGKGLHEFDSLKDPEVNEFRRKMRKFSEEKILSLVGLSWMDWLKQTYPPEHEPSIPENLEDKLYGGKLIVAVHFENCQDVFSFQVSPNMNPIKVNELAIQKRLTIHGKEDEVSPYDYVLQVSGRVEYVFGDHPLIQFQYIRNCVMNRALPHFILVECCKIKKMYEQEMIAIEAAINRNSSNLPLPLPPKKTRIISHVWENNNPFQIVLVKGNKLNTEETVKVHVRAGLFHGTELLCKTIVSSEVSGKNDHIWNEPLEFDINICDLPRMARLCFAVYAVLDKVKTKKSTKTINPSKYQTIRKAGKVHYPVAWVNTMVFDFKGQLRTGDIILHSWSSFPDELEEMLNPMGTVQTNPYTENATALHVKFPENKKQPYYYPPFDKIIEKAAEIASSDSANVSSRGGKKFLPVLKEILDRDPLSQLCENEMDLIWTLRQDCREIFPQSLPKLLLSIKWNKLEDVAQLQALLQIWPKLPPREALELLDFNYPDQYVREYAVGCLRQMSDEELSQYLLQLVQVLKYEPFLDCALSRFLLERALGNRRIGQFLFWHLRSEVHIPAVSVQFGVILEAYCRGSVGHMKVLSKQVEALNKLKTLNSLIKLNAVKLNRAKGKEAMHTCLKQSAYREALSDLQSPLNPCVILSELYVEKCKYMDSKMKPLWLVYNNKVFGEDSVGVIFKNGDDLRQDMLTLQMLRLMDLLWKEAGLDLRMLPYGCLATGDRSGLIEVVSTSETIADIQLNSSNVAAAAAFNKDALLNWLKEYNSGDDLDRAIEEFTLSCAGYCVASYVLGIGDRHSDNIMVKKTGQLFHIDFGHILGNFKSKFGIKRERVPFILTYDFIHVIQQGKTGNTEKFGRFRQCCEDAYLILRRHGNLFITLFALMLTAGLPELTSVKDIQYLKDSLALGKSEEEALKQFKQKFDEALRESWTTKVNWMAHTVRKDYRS
- procedure summary: Inhibition of P110beta/p85alpha (unknown origin) using L-alpha-phosphatidylinositol as substrate after 40 mins by ATP depletion assay
- Format: protein-complex assay
Overview of recorded pIC50 for various molecules
Scale explanation: pIC50 corresponds to minus log10 of a concentration expressed in moles per litre.

COc1ncc(-c2ccc3ncn([C@H]4CCN(C(=O)C5CC5)C4)c(=O)c3c2)cc1NS(=O)(=O)c1ccc(F)cc1: 6.68

Now look at this one.
// returns pIC50 for `COc1ncc(-c2ccc3ncn([C@H]4CCN(CC5CC5)C4)c(=O)c3c2)cc1NS(=O)(=O)c1ccc(F)cc1` with PI3K p110 beta/p85 alpha (Homo sapiens, UniProt P42338); value = 7.62

* * *

Overview of recorded IC50 for various compounds
- Test system: MCF7
- procedure summary: Antiproliferative activity against human MCF7 cells harboring PI3CA E545K mutant after 72 hrs by MTT assay
- Format: functional, cell-based
- test parameters: MCF7, 72 h
Value and unit, in that order.

Use these answered entries as a reference point.
CCN(CC)CCn1cnc2ccc(-c3cnc(OC)c(NS(=O)(=O)c4ccc(F)cc4F)c3)cc2c1=O: 2590 nM
COc1ncc(-c2ccc3ncn(C4CCN(C(=O)C5CC5)CC4)c(=O)c3c2)cc1NS(=O)(=O)c1ccc(F)cc1: 2730 nM
COc1ncc(-c2ccc3ncn(Cc4ccccc4)c(=O)c3c2)cc1NS(=O)(=O)c1ccc(F)cc1: 5900 nM

Now look at this one.
Summary for this compound, `COc1ncc(-c2ccc3ncn([C@H]4CCNC4)c(=O)c3c2)cc1NS(=O)(=O)c1ccc(F)cc1` : IC50 is 2770 nM

* * *

- System: HCT-116
- procedure summary: Antiproliferative activity against human HCT116 cells harboring PI3CA H1047R mutant after 72 hrs by MTT assay
- Assay type: functional, cell-based
- test parameters: HCT-116, 72 h
Overview of recorded pIC50 for various compounds
Scale explanation: pIC50 corresponds to minus log10 of a concentration expressed in moles per litre.

COc1ncc(-c2ccc3ncn([C@@H]4CCN(C(=O)C5CC5)C4)c(=O)c3c2)cc1NS(=O)(=O)c1ccc(F)cc1: 5.22
COc1ncc(-c2ccc3ncn(Cc4cccnc4)c(=O)c3c2)cc1NS(=O)(=O)c1ccc(F)cc1: 5.89
COc1ncc(-c2ccc3ncn([C@H]4CCN(C(=O)C5CC5)C4)c(=O)c3c2)cc1NS(=O)(=O)c1ccc(F)cc1: 6.15
COc1ncc(-c2ccc3ncn([C@@H]4CCN(CC5CC5)C4)c(=O)c3c2)cc1NS(=O)(=O)c1ccc(F)cc1: 5.31
COc1ncc(-c2ccc3ncn(CCN4CCOCC4)c(=O)c3c2)cc1NS(=O)(=O)c1ccc(C)cc1: 5.87
CCN(CC)CCn1cnc2ccc(-c3cnc(OC)c(NS(=O)(=O)c4ccc(F)cc4F)c3)cc2c1=O: 5.99
Cn1c(=O)n(-c2ccc(C(C)(C)C#N)cc2)c2c3cc(-c4cnc5ccccc5c4)ccc3ncc21 [DACTOLISIB]: 6.25
COc1ncc(-c2ccc3ncn(CCN(C)C)c(=O)c3c2)cc1NS(=O)(=O)c1ccc(F)cc1: 5.57
COc1ncc(-c2ccc3ncn(C4CCN(C(=O)OC(C)(C)C)CC4)c(=O)c3c2)cc1NS(=O)(=O)c1ccc(F)cc1: 5.82
COc1ncc(-c2ccc3ncn([C@H]4CCN(C(=O)C5CCOCC5)C4)c(=O)c3c2)cc1NS(=O)(=O)c1ccc(F)cc1: 6.22

Summary for this compound, `COc1ncc(-c2ccc3ncn(CCN4CCOCC4)c(=O)c3c2)cc1NS(=O)(=O)c1ccc(Cl)cc1` : pIC50 is 5.69

Summary for this compound, `COc1ccc(Cn2cnc3ccc(-c4cnc(OC)c(NS(=O)(=O)c5ccc(F)cc5)c4)cc3c2=O)cc1` : pIC50 is 5.55

Summary for this compound, `COc1ncc(-c2ccc3ncn([C@H]4CCNC4)c(=O)c3c2)cc1NS(=O)(=O)c1ccc(F)cc1` : pIC50 is 5.84

Summary for this compound, `CCN(CC)CCn1cnc2ccc(-c3cnc(OC)c(NS(=O)(=O)c4ccc(F)cc4)c3)cc2c1=O` : pIC50 is 5.92

Summary for this compound, `COc1ncc(-c2ccc3ncn(CCN4CCN(C)CC4)c(=O)c3c2)cc1NS(=O)(=O)c1ccc(F)cc1` : pIC50 is 5.84

Summary for this compound, `COc1ncc(-c2ccc3ncn([C@H]4CCN(CC5CC5)C4)c(=O)c3c2)cc1NS(=O)(=O)c1ccc(F)cc1` : pIC50 is 6.17

Summary for this compound, `COc1ncc(-c2ccc3ncn(CCN4CCCC4)c(=O)c3c2)cc1NS(=O)(=O)c1ccc(F)cc1` : pIC50 is 5.58

Summary for this compound, `COc1ncc(-c2ccc3ncn(CCN4CCOCC4)c(=O)c3c2)cc1NS(=O)(=O)c1ccc(F)cc1` : pIC50 is 5.74
